Data provenance: patent US20210238260

targetEntity: plasma purified human antithrombin III (AT-III), as complex with unfractionated heparin
procedureDetails: ratio of K0.5 (lower limit) to Catalyst Biosciences WT FIXa, AT-III/UFH inhibition
Consider the following proteins; for each one, report its K0.5-mut/K0.5-wt.
Lab note: jot down the number only; don't add units.

Data point: FIXa-R318Y/R338E/E410N/T412V (protein) chain 1: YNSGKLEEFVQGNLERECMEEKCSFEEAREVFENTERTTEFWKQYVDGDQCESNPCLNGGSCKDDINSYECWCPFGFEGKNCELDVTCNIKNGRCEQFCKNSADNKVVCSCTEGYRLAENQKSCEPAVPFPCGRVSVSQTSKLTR chain 2: VVGGEDAKPGQFPWQVVLNGKVDAFCGGSIVNEKWIVTAAHCVETGVKITVVAGEHNIEETEHTEQKRNVIRIIPHHNYNAAINKYNHDIALLELDEPLVLNSYVTPICIADKEYTNIFLKFGSGYVSGWGRVFHKGYSALVLQYLRVPLVDRATCLESTKFTIYNNMFCAGFHEGGRDSCQGDSGGPHVTEVEGTSFLTGIISWGEECAMKGKYGIYTKVSRYVNWIKNKVKLT ; K0.5-mut/K0.5-wt = 517

Data point: FIXa-R318Y/R338E/R403E/E410N/T412V (protein) chain 1: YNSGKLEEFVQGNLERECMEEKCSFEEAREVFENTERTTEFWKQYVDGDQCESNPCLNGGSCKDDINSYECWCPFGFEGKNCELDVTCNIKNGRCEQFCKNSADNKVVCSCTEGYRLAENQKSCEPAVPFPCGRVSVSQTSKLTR chain 2: VVGGEDAKPGQFPWQVVLNGKVDAFCGGSIVNEKWIVTAAHCVETGVKITVVAGEHNIEETEHTEQKRNVIRIIPHHNYNAAINKYNHDIALLELDEPLVLNSYVTPICIADKEYTNIFLKFGSGYVSGWGRVFHKGYSALVLQYLRVPLVDRATCLESTKFTIYNNMFCAGFHEGGRDSCQGDSGGPHVTEVEGTSFLTGIISWGEECAMKGKYGIYTKVSEYVNWIKNKVKLT ; K0.5-mut/K0.5-wt = 517

Data point: FIXa-R318Y/R338E/R403E/E410N/T412A (protein) chain 1: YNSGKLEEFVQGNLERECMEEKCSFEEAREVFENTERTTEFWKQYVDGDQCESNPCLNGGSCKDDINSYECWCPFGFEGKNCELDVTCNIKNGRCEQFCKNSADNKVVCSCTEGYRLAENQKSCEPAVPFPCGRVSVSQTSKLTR chain 2: VVGGEDAKPGQFPWQVVLNGKVDAFCGGSIVNEKWIVTAAHCVETGVKITVVAGEHNIEETEHTEQKRNVIRIIPHHNYNAAINKYNHDIALLELDEPLVLNSYVTPICIADKEYTNIFLKFGSGYVSGWGRVFHKGYSALVLQYLRVPLVDRATCLESTKFTIYNNMFCAGFHEGGRDSCQGDSGGPHVTEVEGTSFLTGIISWGEECAMKGKYGIYTKVSEYVNWIKNKAKLT ; K0.5-mut/K0.5-wt = 517
